// provenance: ChEMBL document CHEMBL2390858

- System: Klebsiella pneumoniae
- Assay Remarks: microbe, parasite or virus in culture
Readout Name: MIC

Answer for every listed entry: what is its MIC? The entries follow.
1. Cc1noc(NC(=O)NC23CC4CC(CC(C4)C2)C3)c1C
2. Cc1cc(NS(=O)(=O)c2ccc(NC(=O)NC34CC5CC(CC(C5)C3)C4)cc2)no1
3. CCn1nc(NC(=O)NC2C3CC4CC(C3)CC2C4)cc1C (stereo unspecified)

["> 200 µg/mL", "> 200 µg/mL", "> 200 µg/mL"]

Answer for every listed entry: what is its MIC? The entries follow.
1. Cc1cc(NC(=O)NC2C3CC4CC(C3)CC2C4)no1 (stereo unspecified)
2. Cc1onc(NC(=O)NC23CC4CC(CC(C4)C2)C3)c1Br
3. O=C(Nc1ncco1)NC1C2CC3CC(C2)CC1C3 (stereo unspecified)

1: > 200 µg/mL; 2: > 200 µg/mL; 3: > 200 µg/mL

----------
Provide the recorded MIC for the entries that follow.
- System: Bacillus anthracis
- Assay Remarks: microbe, parasite or virus in culture
- Stated Conditions: Sterne

compound="Cc1cc(NC(=O)NC2C3CC4CC(C3)CC2C4)no1 (stereo not drawn)" assayed_system="Bacillus anthracis" result="> 200 µg/mL"

Answer for every listed entry: what is its MIC? The entries follow.
1. CC(C)c1nnc(NC(=O)NC2C3CC4CC(C3)CC2C4)o1 (stereo not drawn)
2. O=C(Nc1ncccn1)NC12CC3CC(CC(C3)C1)C2

1. 100 µg/mL
2. > 200 µg/mL

----------
Target or system Bifunctional epoxide hydrolase 2 (Homo sapiens, UniProt P34913); recorded quantity pIC50.
One number for each entry, as −log10 of the molar value.

Reference set (3 entries):
compound="O=C(Nc1ncco1)NC1C2CC3CC(C2)CC1C3 (stereo not drawn)" readout_name=pIC50 result_number=7.34
compound=O=C(Nc1ccncc1)NC12CC3CC(CC(C3)C1)C2 readout_name=pIC50 result_number=6.76
compound=Cc1ccnc(NS(=O)(=O)c2ccc(NC(=O)NC34CC5CC(CC(C5)C3)C4)cc2)n1 readout_name=pIC50 result_number=7.77

Answer for every listed entry: what is its pIC50? The entries follow.
1. O=C(Nc1ccon1)NC12CC3CC(CC(C3)C1)C2
2. Cc1noc(NC(=O)NC23CC4CC(CC(C4)C2)C3)c1Cl
3. Cc1cnc(NC(=O)NC23CC4CC(CC(C4)C2)C3)s1
4. Cn1cc(NC(=O)NC23CC4CC(CC(C4)C2)C3)cn1
5. O=C(Nc1ncncn1)NC12CC3CC(CC(C3)C1)C2
6. O=C(Nc1ccccn1)NC12CC3CC(CC(C3)C1)C2

1: 7.34; 2: 9.30; 3: 6.94; 4: 6.31; 5: 7.10; 6: 5.82

Answer for every listed entry: what is its pIC50? The entries follow.
1. CC(C)c1nnc(NC(=O)NC2C3CC4CC(C3)CC2C4)o1 (stereo not drawn)
2. CCn1nc(NC(=O)NC23CC4CC(CC(C4)C2)C3)cc1C
3. CC(C)c1nnc(NC(=O)NC23CC4CC(CC(C4)C2)C3)o1
4. O=C(Nc1ccc(S(=O)(=O)Nc2ccc(Cl)nn2)cc1)NC12CC3CC(CC(C3)C1)C2
5. CCn1nc(NC(=O)NC2C3CC4CC(C3)CC2C4)cc1C (stereo not drawn)
6. Cc1cc(NC(=O)NC23CC4CC(CC(C4)C2)C3)on1
7. O=C(Nc1nnc(C2CCC2)o1)NC12CC3CC(CC(C3)C1)C2
8. O=C(Nc1nc2ccccc2s1)NC12CC3CC(CC(C3)C1)C2

[6.07, 5.60, 6.25, 7.72, 5.61, 6.93, 6.62, 8.52]

Answer for every listed entry: what is its pIC50? The entries follow.
1. O=C(Nc1ncccn1)NC12CC3CC(CC(C3)C1)C2
2. COc1ccc(NS(=O)(=O)c2ccc(NC(=O)NC34CC5CC(CC(C5)C3)C4)cc2)nn1
3. Cc1csc(NC(=O)NC2C3CC4CC(C3)CC2C4)n1 (stereo not drawn)
4. CC(C)(C)c1cc(NC(=O)NC2C3CC4CC(C3)CC2C4)no1 (stereo not drawn)
5. O=C(Nc1nnc(-c2cccs2)o1)NC12CC3CC(CC(C3)C1)C2
6. Cc1noc(NS(=O)(=O)c2ccc(NC(=O)NC34CC5CC(CC(C5)C3)C4)cc2)c1C

4.62
8.15
6.15
7.14
5.80
7.51
